system: NCI-H650; experiment: relative viability (nuclei count vs DMSO), 5 days (fraction); higher = more cells survive; details: first compound 0.03162 µM
Binarize relative viability at 0.8; below is fulfilled, at or above is not fulfilled.

I'd appreciate it if you could check whether CCN(CC)CCCCNc1ncc2cc(-c3cc(OC)cc(OC)c3)c(NC(=O)NC(C)(C)C)nc2n1 + CS(=O)(=O)N1CCN(Cc2cc3nc(-c4cccc5[nH]ncc45)nc(N4CCOCC4)c3s2)CC1 [Pictilisib] (partner 1 µM) has relative viability smaller than 0.8.
not fulfilled

Dear colleague, could you confirm whether relative viability of O=c1cc(N2CCOCC2)oc2c(-c3cccc4c3sc3ccccc34)cccc12 + N=C(N)NC(=N)NCCc1ccccc1 [Phenformin] (partner 250 µM) falls below 0.8? Thanks.
fulfilled

API: query returns whether the compound falls strictly under 0.8 in relative viability. Query: O=c1cc(N2CCOCC2)oc2c(-c3cccc4c3sc3ccccc34)cccc12 + CC(=O)c1c(C)c2cnc(Nc3ccc(N4CCNCC4)cn3)nc2n(C2CCCC2)c1=O [Palbociclib] (partner 0.5 µM)
fulfilled

Regarding CCN(CC)CCCCNc1ncc2cc(-c3cc(OC)cc(OC)c3)c(NC(=O)NC(C)(C)C)nc2n1 + Nc1ncn([C@H]2C[C@H](O)[C@@H](CO)O2)c(=O)n1 [Decitabine] (partner 2 µM) , kindly confirm whether its relative viability is beneath 0.8.
fulfilled

Now for another entry.
Hello, is relative viability of the following compound strictly smaller than 0.8? CCN(CC)CCCCNc1ncc2cc(-c3cc(OC)cc(OC)c3)c(NC(=O)NC(C)(C)C)nc2n1 + Nc1nc2[nH]cc(CCc3ccc(C(=O)N[C@@H](CCC(=O)O)C(=O)O)cc3)c2c(=O)[nH]1 [Pemetrexed] (partner 0.2 µM)
not fulfilled
